experimental-system: HBX2 HIV integrase (Human immunodeficiency virus type 1 group M subtype B, UniProt P04585)
method-summary: 3' LTR processing assay
Format: biochemical
test-settings: 3' processing, IN 200nM, substrate DNA 12.5 nM, up to 2 h at 37°C
observable: pIC50
Schema: pIC50 number; meaning minus log10 of the concentration expressed in molar units.

Specify pIC50 for CC(=O)c1ccc2ccc(/C=C/c3cc(O)c(O)cc3O)nc2c1O and stop.
6.70

* * *

experimental-system: HBX2 HIV integrase (Human immunodeficiency virus type 1 group M subtype B, UniProt P04585)
method-summary: Strand transfer assay
Type: biochemical
test-settings: IN 200nM, substrate DNA 12.5 nM, up to 2 h at 37°C, read-out: Transfert IC50
observable: IC50 (nM)
Give the value in nM but do not write nM after it.

Write down measured IC50 (HBX2 HIV integrase (Human immunodeficiency virus type 1 group M subtype B, UniProt P04585)) for this molecule. CC(=O)c1ccc2ccc(/C=C/c3cc(O)c(O)cc3O)nc2c1O
199
